- tested_system: PRC-1 (Pseudomonas wenzhouensis)
- Sequence (Z9ZEF5EQX5 23-379 limits assumed): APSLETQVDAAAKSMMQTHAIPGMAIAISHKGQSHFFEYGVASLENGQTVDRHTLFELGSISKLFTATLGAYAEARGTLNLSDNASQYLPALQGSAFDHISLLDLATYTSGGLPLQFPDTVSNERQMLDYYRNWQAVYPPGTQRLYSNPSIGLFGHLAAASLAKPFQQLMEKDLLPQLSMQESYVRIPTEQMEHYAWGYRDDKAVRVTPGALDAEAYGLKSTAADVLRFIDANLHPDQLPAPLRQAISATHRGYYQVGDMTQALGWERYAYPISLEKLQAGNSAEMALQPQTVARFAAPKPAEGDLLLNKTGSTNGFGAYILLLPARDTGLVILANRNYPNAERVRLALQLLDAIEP
- assay_procedure: nitrocefin hydrolysis inhibition, spectrophotometry
- settings: 100 μM nitrocefin, 5 min preincubation, 37°C; covalent
measurement_type: IC50 (µM)
Output spec: scalar in µM, unitless text.

> print(dat)
                             entry.smiles  test.value
1  O=C(O)[C@H]1/C(=C/CO)O[C@@H]2CC(=O)N21        23.4

// query IC50 value for entry NC(=O)[C@@H]1CC[C@@H]2CN1C(=O)N2OS(=O)(=O)O
0.000392

# credit: paper PMC8719060
